reported_property: melting point

Look over these answered cases.
CCC(CC)C(NS(=O)(=O)c1ccc(Br)s1)c1ccnn1-c1ccccc1 (centres unmarked) : 120 to 120.7 °C
CCC(CC)C(NS(=O)(=O)c1ccc(C#N)cc1)c1ccnn1-c1ccccc1 (centres unmarked) : 134.6 to 136.6 °C
CC(C)C(NS(=O)(=O)c1ccc(Cl)s1)c1ncnn1Cc1ccccc1 (centres unmarked) : 138 to 139 °C
O=S(=O)(NC(c1ccc(F)cc1)c1ccnn1-c1ccc(F)cc1)c1ccc(Cl)s1 (centres unmarked) : 159 to 160 °C
CCC(CC)C(NS(=O)(=O)c1ccc(Cl)cc1)c1ccnn1-c1ccccc1 (centres unmarked) : 135 to 136.4 °C

Please find the next compound below.
response.value for CCC(CC)C(NS(=O)(=O)c1cc(Cl)c(Cl)s1)c1ccnn1-c1ccccc1 (centres unmarked) (field: melting point) = 116 to 119.6 °C

----------
Items are presented alongside their recorded melting point.

Cc1ccc(Cn2ncnc2C(C)NS(=O)(=O)c2ccc(Cl)s2)cc1 (stereo not shown) : 116 to 117 °C
CCC(CC)C(NS(=O)(=O)c1ccc(Cl)s1)c1ccnn1S(=O)(=O)c1ccc(C)cc1 (stereo not shown) : 146 to 148 °C

Entry under test: CCC(CC)C(c1ccnn1-c1ccccc1)N(C)S(=O)(=O)c1ccc(Cl)s1 (stereo not shown) . Its melting point was 125.8 to 127.6 °C

For this compound ( CCC(CC)C(NS(=O)(=O)c1ccc(Cl)s1)c1ccnn1Cc1ccc(O)cc1 (stereo not shown) ), measured melting point is 90 to 92 °C

----------
Parameter melting point: see the listing below.

Solved cases below.
CC(C)C(NS(=O)(=O)c1ccc(Cl)s1)c1cccn1Cc1ccccc1 (centres unmarked) : 102 to 103 °C
CCC(CC)C(NS(=O)(=O)c1ccc(Cl)s1)c1ncnn1Cc1ccc(OC)cc1 (centres unmarked) : 136 to 137 °C

The measured melting point associated with CCC(CC)C(c1ccnn1-c1ccccc1)N(C)S(=O)(=O)c1ccc(Cl)c(Cl)c1 (centres unmarked) reads 102.1 to 104.1 °C

----------
Examples of compounds with documented melting point follow.

Consider the following illustrative entries.
CCC(CC)C(c1ccnn1-c1ccccc1)N(C)S(=O)(=O)c1ccc(Cl)cc1 (centres unmarked) : 86.5 to 89 °C
CCC(CC)C(c1ccnn1-c1ccccc1)N(C)S(=O)(=O)c1ccc(C#N)cc1 (centres unmarked) : 37.8 to 54 °C

Now look at this one.
Field melting point (entry CCC(CC)C(c1ccnn1-c1ccccc1)N(C)S(=O)(=O)c1cc(Cl)c(Cl)s1 (centres unmarked) ) reads 99 to 100.4 °C

----------
reported_property: melting point

CCC(CC)C(c1ccnn1-c1ccccc1)N(C)S(=O)(=O)c1ccc(Br)s1 (centres unmarked) : 115.6 to 118 °C
Cc1ccc(Cn2ncnc2C(NS(=O)(=O)c2ccc(Cl)s2)C(C)C)cc1 (centres unmarked) : 124 to 125 °C
CCC(CC)C(NS(=O)(=O)c1ccc(Cl)s1)c1ncnn1Cc1ccc(C)cc1 (centres unmarked) : 103 to 104 °C
CC(NS(=O)(=O)c1ccc(Cl)s1)c1ncnn1Cc1ccccc1 (centres unmarked) : 123 to 124 °C

Field: next compound
Record CCC(CC)C(NS(=O)(=O)c1ccc(Cl)c(Cl)c1)c1ccnn1-c1ccccc1 (centres unmarked) . Reported melting point: 56 to 66 °C
